B1: glmS ribozyme (parent)
chain: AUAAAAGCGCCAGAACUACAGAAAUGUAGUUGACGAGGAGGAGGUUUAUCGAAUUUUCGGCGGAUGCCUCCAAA

# Variants of: B1
# experiment summary: self-cleavage kobs at 10000 uM GlcN6P; higher = faster cleavage; RNA array
# condition: with glucosamine-6-phosphate
Fewer inactive variants are shown than the library holds.
Listing of entries alongside the reported self-cleavage kobs at 10000 uM GlcN6P.
readout type: self-cleavage kobs at 10000 uM GlcN6P

| mutant label | recorded measurement |
| --- | --- |
| C34G G62A | < 1e-05 s⁻¹ |
| A14U A52U | 0.000129 s⁻¹ |
| U54C C67A | 0.00521 s⁻¹ |
| A48U A53U | 0.000265 s⁻¹ |
| C50U G63C | < 1e-05 s⁻¹ |
| A23C U69A | 9.83e-05 s⁻¹ |
| U30A U46G | 0.000702 s⁻¹ |
| G9U G38A U56C G63U | < 1e-05 s⁻¹ |
| A6G U30A C34U C67G C71G | 7.35e-05 s⁻¹ |
| G51A C58G | < 1e-05 s⁻¹ |
| A36C G37C A53U U69C | < 1e-05 s⁻¹ |
| C8G G32U G66U | < 1e-05 s⁻¹ |
| C50G C67U C68G C71G | 0.000108 s⁻¹ |
| C16G U31C | 0.000401 s⁻¹ |
| A6U G7U C10A G29A C34A C67G C68A C71U | 3.01e-05 s⁻¹ |
| G38U G44U U49C | < 1e-05 s⁻¹ |
| G41U A52G | 0.000107 s⁻¹ |
| U30C G43A | < 1e-05 s⁻¹ |
| A14C A15U | 0.000256 s⁻¹ |
| C8G G9U G66C C68G | < 1e-05 s⁻¹ |
| G9C C61G | 0.00575 s⁻¹ |
| G9U A33C A36C U46C C68G | < 1e-05 s⁻¹ |
